Measured GI50 by item
tested on: UACC-62; assay: NCI tumour cell line growth inhibition, 48 h
The source made the active and inactive calls. Cut-off read from the data, not from the text of the source: active = GI50 up to about 1.1 µM and inactive = higher.

{"Compound": "NC(=O)N(O)c1cccc(Br)c1", "GI50": "> 100 µM (inactive)"}
{"Compound": "CC(=O)OCC1OC(OC2CC3C(C)(C)C(OC(C)=O)CC[C@]3(C)C3CCC45CC4(CC[C@H]5C(C)CC(O)[C@@H](O)C(C)(C)O)[C@]23C)C(O)C(O)C1O (stereo not given in full)", "GI50": "6.25 µM (inactive)"}
{"Compound": "Cc1nc2cc(Cl)c(N)cc2[nH]1", "GI50": "> 100 µM (inactive)"}
{"Compound": "Ic1ccc2c(c1)N(c1ccccc1)c1cc([N-]c3ccc4nc5ccc(I)cc5[n+](-c5ccccc5)c4c3)ccc1N2", "GI50": "69.3 µM (inactive)"}
{"Compound": "CC1=C(c2nc3ccccc3s2)C(=O)OC1(C)C", "GI50": "> 100 µM (inactive)"}

----------
tested on: LXFL 529; test: NCI tumour cell line growth inhibition, 48 h
Calls of active or inactive are those of the source. Rule as the data show it: active = GI50 up to about 1.1 µM and inactive = higher.
Labels: TRUE (active), FALSE (inactive)

{"Compound": "O=[N+]([O-])c1ccc(N2C[N+](c3ccccc3)=NC(c3ccccc3)=N2)cc1", "Classification": "FALSE"}
{"Compound": "CC1=C(c2nc3ccccc3s2)C(=O)OC1(C)C", "Classification": "FALSE"}
{"Compound": "O=c1nc(NC(c2ccccc2)(c2ccccc2)c2ccccc2)ccn1CCNCCn1ccc(NC(c2ccccc2)(c2ccccc2)c2ccccc2)nc1=O", "Classification": "FALSE"}
{"Compound": "Cc1nn2c(nc1=O)sc1ccc3ccccc3c12", "Classification": "FALSE"}
{"Compound": "OC1OCC(COc2cc(Cl)c(Cl)cc2Cl)OC1O (stereo not given)", "Classification": "FALSE"}
{"Compound": "CCCCc1c2c([n+]([O-])c3c1CCCC3)CCCC2", "Classification": "FALSE"}
{"Compound": "CCC(=O)OC1CCn2c1nc1c2C(=O)C(C)=C(N2CC2)C1=O (stereo not given)", "Classification": "TRUE"}
{"Compound": "CCOC(=O)/C(Br)=C1\\OC(=O)c2ccccc2-c2ccccc21", "Classification": "FALSE"}
{"Compound": "Oc1ccc(Br)cc1/C=N/c1ccc(Oc2ccc(/N=C/c3cc(Br)ccc3O)cc2)cc1", "Classification": "FALSE"}
{"Compound": "CCC(=O)Nc1nc2c(ncn2C2OC(COC(=O)CC)C(OC(=O)CC)C2OC(=O)CC)c(=O)[nH]1 (stereo not given)", "Classification": "FALSE"}

----------
tested on: COLO 205; assay: NCI tumour cell line growth inhibition, 48 h
Calls of active or inactive are those of the source. Cut-off read from the data, not from the text of the source: active = GI50 up to about 1.1 µM and inactive = higher.

{"Compound": "Cc1ccc(/N=N\\c2c(O)ccc3cc(S(=O)(=O)O)ccc23)cc1", "GI50": "> 100 µM (inactive)"}
{"Compound": "CC(=O)c1nc(C#N)c(N)o1", "GI50": "> 100 µM (inactive)"}
{"Compound": "CC(C)[S+]1C2=C(CC(C)(C)CC2=O)[N-]c2ccccc21 (stereo not given)", "GI50": "> 100 µM (inactive)"}
{"Compound": "[N-]=[N+]=CC(=O)C1CCN(c2ccccc2)C1=O (stereo not given)", "GI50": "> 10 µM (inactive)"}
{"Compound": "CCOc1ccc(/N=C/c2ccnc3ccccc23)cc1", "GI50": "81.3 µM (inactive)"}
{"Compound": "O=c1c(/C=C/c2c(O)ccc3ccccc23)nnc2sc(-c3cccc([N+](=O)[O-])c3)nn12", "GI50": "26.5 µM (inactive)"}
{"Compound": "COc1ccc(CC(C)N)cc1 (stereo not given) [PARA-METHOXYAMPHETAMINE]", "GI50": "> 100 µM (inactive)"}
{"Compound": "C[C@H](C1CC2(C)OC2(C)C(=O)O1)[C@H]1CC[C@H]2[C@@H]3[C@@H]4O[C@@H]4[C@@]4(O)CC=CC(=O)[C@]4(C)[C@H]3CC[C@]12C (stereo not given in full)", "GI50": "> 50 µM (inactive)"}
{"Compound": "c1ccc2c(c1)C(=Nc1ccc(N=C3c4ccccc4-c4ccccc43)cc1)c1ccccc1-2", "GI50": "> 100 µM (inactive)"}
{"Compound": "CN(C)CCC(/C=C/c1ccccc1)=N\\Nc1ccc(Cl)cc1Cl", "GI50": "14.6 µM (inactive)"}
